# experimental.target: CDK2/cyclin E (Homo sapiens, UniProt P24941)
# assay.name: CDK2/cyclin E Flashplate test in 96-well format
# Type: biochemical
# measurement.conditions: read-out: CDK2 IC50
pIC50: −log10 of the molar value. Counter-ions that a name gives are not always drawn.
property.name: pIC50

In the examples that follow, each entry is paired with its recorded pIC50.
- compound: "CC(C)CNc1ccc(S(=O)(=O)Oc2ccc3nc(NC(=O)CCCCCCCN)sc3c2)cc1 [Example 29b]"
  data.value: 6.79
- compound: "COCC(=O)Nc1nc2ccc(OS(=O)(=O)c3ccc(NCCN(C(C)C)C(C)C)cc3)cc2s1 [Example 44]"
  data.value: 6.97
- compound: "CC(C)NCCNc1ccc(S(=O)(=O)Oc2ccc3nc(NC(=O)CC4CCNCC4)sc3c2)cc1 [Example 18, hydrochloride]"
  data.value: 5.57
- compound: "CC(C)NCCNc1ccc(S(=O)(=O)Oc2ccc3nc(NC(=O)CCC4CCNCC4)sc3c2)cc1 [Example 24, hydrochloride]"
  data.value: 6.06

1. CC(C)(O)CNc1ccc(S(=O)(=O)Oc2ccc3nc(NC(=O)CCCCCCCN)sc3c2)cc1 [Example 22d]
2. O=C(CCC1CCNCC1)Nc1nc2ccc(OS(=O)(=O)c3cccs3)cc2s1 [Example 33a, trifluoroacetic acid]
3. O=C(Nc1nc2ccc(OS(=O)(=O)c3ccc(NCCCCn4cnc(-c5cccnc5)c4)cc3)cc2s1)C1CC1 [Example 13]
Qu. Ordering: ascending pIC50. Returns: the labels listed in the requested order.
Ans. 2, 3, 1
(2: 5.49, 3: 6.17, 1: 7.16)

====

# experimental.target: CDK2/cyclin E (Homo sapiens)
# assay.name: CDK2/cyclin E Flashplate test in 96-well format
# Assay type: biochemical
property.name: IC50 (nM)
Your answer is read as nM, so omit the unit and give the number.

molecule CC1(C)CC(Nc2ccc(S(=O)(=O)Oc3ccc4nc(NC(=O)C5CC5)sc4c3)cc2)CC(C)(C)N1[O] , IC50 observed: 809

====

# experimental.target: CDK2/cyclin E (Homo sapiens, UniProt P24941)
# assay.name: CDK2/cyclin E Flashplate test in 96-well format
# Assay type: biochemical
# measurement.conditions: read-out: CDK2 IC50
pIC50: −log10 of the molar value. Where a name gives a salt, the structure may show the parent alone.
property.name: pIC50

In the examples that follow, each entry is paired with its recorded pIC50.
- molecule: "CC(C)C(=O)Nc1nc2ccc(OS(=O)(=O)c3ccc(NCCN(C(C)C)C(C)C)cc3)cc2s1 [Example 55, hydrochloride]"
  pIC50: 7.14
- molecule: "NCCC(=O)Nc1nc2ccc(OS(=O)(=O)c3cccs3)cc2s1 [Example 33d, trifluoroacetic acid]"
  pIC50: 5.53
- molecule: "CC(C)N(CCNc1ccc(S(=O)(=O)Oc2ccc3nc(NC(=O)C4CCCC4)sc3c2)cc1)C(C)C [Example 45]"
  pIC50: 6.87
- molecule: "CC(C)(CNc1ccc(S(=O)(=O)Oc2ccc3nc(NC(=O)C4CC4)sc3c2)cc1)OP(=O)(O)O [Example 89]"
  pIC50: 6.98

P. CNc1ccc(S(=O)(=O)Oc2ccc3nc(NC(=O)C4CC4)sc3c2)cc1 [Example 10]
Q. O=C(CC1CCNCC1)Nc1nc2ccc(OS(=O)(=O)c3ccc(NCCCn4ccnc4)cc3)cc2s1 [Example 19a, hydrochloride]
R. CC(C)CNc1ccc(S(=O)(=O)Oc2ccc3nc(NC(=O)CC4CCNCC4)sc3c2)cc1 [Example 28, hydrochloride]
Qu. Returns the items ordered by pIC50, from maximum to minimum. Returns: the labels listed in the requested order.
Ans. P, R, Q
(P: 7.04, R: 6.58, Q: 5.57)
